Below, each of the molecules is paired with its reported pIC50 value.
Biological target: CDK2/CyclinA (Homo sapiens, UniProt P24941)
Assay: Activated CDK2/CyclinA kinase inhibitory activity assay
pIC50: −log10 of the molar value.

molecule | valueObserved
COc1ccc(C#N)cc1C(=O)Nc1c[nH]nc1-c1nc2cc(CN3CCOCC3)ccc2[nH]1 | > 6.00
O=C(Nc1c[nH]nc1-c1nc2cc(CN3CCOCC3)ccc2[nH]1)C1CCCO1 (stereo not shown) | > 6.00
O=C(Nc1cc(F)cc(F)c1)Nc1c[nH]nc1-c1nc2cc(CN3CCOCC3)ccc2[nH]1 | > 5.00
COc1cc2nc(-c3n[nH]cc3NC(=O)c3ccoc3CN(C)C)[nH]c2cc1OC | > 6.00
COc1cc2nc(-c3n[nH]cc3NC(=O)c3cc(Cl)cc(N4CCN(C)CC4)c3)[nH]c2cc1OC | > 6.00

INPUT: Can you look up the measured pIC50 of O=C(Nc1c[nH]nc1-c1nc2cc(CN3CCOCC3)ccc2[nH]1)Nc1c(F)cc(F)cc1F for me?
OUTPUT: > 6.00
